Values compiled from PubChem BioAssay AID2060614.

Tested on: 598228-144-R-J1-PDC complex spheroids, viability
method-notes: Anticancer human tumor 598228-144-R-J1-PDC patient-derived serous endometrial adenocarcinoma cell line growth inhibition [CLK]
condition-set: second compound 0.1 µM; first compound 1 µM; hits give low values
Description: A high-throughput screen of multi-cell type tumor spheroids was designed to identify active combinations of […] and targeted small molecules. Complex spheroids include a stromal component modeled by human endothelial cells (HUVEC) and fibroblasts modeled by human mesenchymal stem cells (MSCs). […] Compounds. […] If the clinical Cmax for an agent had not been determined, the highest concentration tested was 10 microM. […]
Mark each entry True if its viability, T/C sits below 90%, and False for all others.

Record Nc1ccccc1NC(=O)c1ccc(CNC(=O)OCc2cccnc2)cc1 + CNC(=O)c1ccc(Nc2nc(OC3CCCC3)c3c(-c4ccc5nc(C)oc5c4)c[nH]c3n2)c(OC)c1 : is its viability, T/C strictly below 90%?
True

New cases:
State whether 90% exceeds viability, T/C recorded for COC1C=CCC(C)C(C)S(=O)(=O)NC(=O)c2ccc3c(c2)N(CC2CCC21)CC1(CCCc2cc(Cl)ccc21)CO3 (stereo not given) + CN1CCN(c2cc(C(=O)Nc3cc4cc(-c5cnn(C)c5)ccc4cn3)ccn2)CC1 .
True

Does CCCS(=O)(=O)Nc1ccc(F)c(C(=O)c2c[nH]c3ncc(-c4ccc(Cl)cc4)cc23)c1F + CN1CCN(c2cc(C(=O)Nc3cc4cc(-c5cnn(C)c5)ccc4cn3)ccn2)CC1 have viability, T/C strictly under 90%?
False

hey, is viability, T/C for CCN1CCN(Cc2ccc(Nc3ncc(F)c(-c4cc(F)c5nc(C)n(C(C)C)c5c4)n3)nc2)CC1 + CNC(=O)c1ccc(Nc2nc(OC3CCCC3)c3c(-c4ccc5nc(C)oc5c4)c[nH]c3n2)c(OC)c1 lower than 90% or not?
False

----------
System: 598228-144-R-J1-PDC complex spheroids, viability
method-notes: Anticancer human tumor 598228-144-R-J1-PDC cell line growth inhibition [CLK]; active = viability on the fitted dose curve at most 10% of control; inactive = the rest;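 further: spheroids exposed to compounds for seven days before readout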
condition-set: second compound 1 µM; first compound 1 µM
Outcome field: choose from Yes = active, No = inactive

See these solved cases before continuing.
Identify the outcome logged in this assay for the molecule shown: COC1C=CCC(C)C(C)S(=O)(=O)NC(=O)c2ccc3c(c2)N(CC2CCC21)CC1(CCCc2cc(Cl)ccc21)CO3 (stereo not given) + CNC(=O)c1ccc(Nc2nc(OC3CCCC3)c3c(-c4ccc5nc(C)oc5c4)c[nH]c3n2)c(OC)c1
No

Tell me the recorded outcome of this test for Nc1ccn(C2OC(CO)C(O)C2(F)F)c(=O)n1 (stereo not given) + CNC(=O)c1ccc(Nc2nc(OC3CCCC3)c3c(-c4ccc5nc(C)oc5c4)c[nH]c3n2)c(OC)c1 .
No

Answer briefly: the call reported for O=c1[nH]cc(F)c(=O)[nH]1 + CNC(=O)c1ccc(Nc2nc(OC3CCCC3)c3c(-c4ccc5nc(C)oc5c4)c[nH]c3n2)c(OC)c1 in this assay.
No

Dear all, I need the recorded test outcome for Nc1ccccc1NC(=O)c1ccc(CNC(=O)OCc2cccnc2)cc1 + CNC(=O)c1ccc(Nc2nc(OC3CCCC3)c3c(-c4ccc5nc(C)oc5c4)c[nH]c3n2)c(OC)c1 , thank you.
No

Which outcome was assigned to CCc1c2c(nc3ccc(O)cc13)-c1cc3c(c(=O)n1C2)COC(=O)[C@]3(O)CC + CNC(=O)c1ccc(Nc2nc(OC3CCCC3)c3c(-c4ccc5nc(C)oc5c4)c[nH]c3n2)c(OC)c1 in this test?
Yes

Query: recorded result category for CC(=O)O[C@H]1C(=O)[C@@]2(C)[C@H]([C@H](OC(=O)c3ccccc3)[C@]3(O)C[C@H](OC(=O)[C@H](O)[C@@H](NC(=O)c4ccccc4)c4ccccc4)C(C)=C1C3(C)C)[C@]1(OC(C)=O)CO[C@@H]1C[C@@H]2O + CN1CCN(c2cc(C(=O)Nc3cc4cc(-c5cnn(C)c5)ccc4cn3)ccn2)CC1 in this test
Yes

Others:
Returns: the outcome recorded for O=C(c1cc(Cc2n[nH]c(=O)c3ccccc23)ccc1F)N1CCN(C(=O)C2CC2)CC1 + CNC(=O)c1ccc(Nc2nc(OC3CCCC3)c3c(-c4ccc5nc(C)oc5c4)c[nH]c3n2)c(OC)c1 in this assay.
No

Hi team, can someone confirm the assay call for CC(CO)NC(=O)c1cc(-c2ccc(Cl)cc2)nn(-c2cnn(C)c2)c1=O (stereo not given) + CNC(=O)c1ccc(Nc2nc(OC3CCCC3)c3c(-c4ccc5nc(C)oc5c4)c[nH]c3n2)c(OC)c1 ?
No

Recorded test outcome, item C=CC(=O)N1CCN(c2nc(=O)n(-c3c(C)ccnc3C(C)C)c3nc(-c4c(O)cccc4F)c(F)cc23)C(C)C1 (stereo not given) + CN1CCN(c2cc(C(=O)Nc3cc4cc(-c5cnn(C)c5)ccc4cn3)ccn2)CC1
Yes

Call for entry COc1ccc([C@@H](O)c2cc(-c3ncnc4cc(N5CCOCC5)ccc34)c(F)cc2Cl)nn1 + CNC(=O)c1ccc(Nc2nc(OC3CCCC3)c3c(-c4ccc5nc(C)oc5c4)c[nH]c3n2)c(OC)c1 :
No
